Origin of values: ChEMBL document CHEMBL1201862

- Test system: NCI-H23
- run.description: NCI tumour cell line growth inhibition, 48 h
Calls of active or inactive are those of the source. No stated cut-off is given here; in the data, active = GI50 up to about 1.1 µM and inactive = higher. Starred links: 1 amine or outer side, 2 acyl side, 3 side chain; linkers in the order of their positions; H or OH if unused. Positions of bridges follow the written chain, without caps; N, C: chain ends. Non-standard residues stand in square brackets, D forms with d. Residues, ends and D or L forms follow the SMILES beside them. ξ: configuration not given here. *: point of attachment. γ4hArg(2R,3R-(OH)2) = N=C(N)NCCC[C@H](N[*:1])[C@@H](O)[C@@H](O)C(=O)[*:2]; Gln(3S,4R-Me2) = C[C@H]([C@H](N)C(=O)O)[C@@H](C)C(N)=O; X50 = CC(C)C[C@H](C)[C@@H](O)[C@@H](C)C(=O)*; X51 = COC(c1ccc(O)cc1)C(N[*:1])C(=O)[*:2]; NMeQ = CN[C@@H](CCC(N)=O)C(=O)O; Thr(3ξ) = CC(O)[C@H](N)C(=O)O; NMeA = CN[C@@H](C)C(=O)O
Item-by-item account of GI50
quantity.name: GI50

compound	result.value
Cc1nn(C(=O)Cc2ccccc2)c2c1C(c1ccc(N(C)C)cc1)SC(=N)N2 (stereo not given)	> 100 µM (inactive)
CC(CC(=O)O)C(C(=O)O)C(=O)O (stereo not given)	> 100 µM (inactive)
C=C(CCCO)[C@@H]1CC[C@@](C)(O)[C@H]1C	> 100 µM (inactive)
COC(c1ccc(O)cc1)C1NC(=O)[C@H](CCC(N)=O)N(C)C(=O)[C@H](CC(C)C)NC(=O)[C@@H](CCCN=C(N)N)NC(=O)[C@H](C(C)O)NC(=O)[C@@H](NC(=O)[C@@H](NC(=O)[C@H](O)[C@H](O)[C@H](CCCN=C(N)N)NC(=O)[C@H](C)NC(=O)[C@H](C)[C@H](O)[C@@H](C)CC(C)C)[C@@H](C)[C@@H](C)C(N)=O)[C@@H](C)OC(=O)[C@H](C)N(C)C1=O (stereo partly drawn) (X50-A[γ4hArg(2R,3R-(OH)2)][Gln(3S,4R-Me2)]T[Thr(3ξ)][dR]L[NMeQ][X51][NMeA]; ester 4-C)	0.0944 µM (active)
O=C(/C=C/CC(O)(c1ccccc1)c1ccccc1)Nc1ccccc1Cl	> 100 µM (inactive)
O=C(c1ccc(Cl)cc1)N1N=C(c2ccc(Cl)cc2)CC1(O)c1cc(F)c(Cl)cc1Cl (stereo not given)	12.2 µM (inactive)
C#CCOCn1cnc2c(Cl)ncnc21	> 100 µM (inactive)
CC1(C)CC(=O)C2=C(C1)NC1=C(C(=O)CC(C)(C)C1)C2c1ccc([N+](=O)[O-])cc1	> 100 µM (inactive)
Nc1c(C(=O)Nc2ccc(C3=NCCN3)cc2)cccc1C(=O)Nc1ccc(C2=NCCN2)cc1	> 100 µM (inactive)
CC(O)c1ccc(C(O)/C(=N\NC(=O)c2ccncc2)c2nc3ccc([N+](=O)[O-])cc3nc2O)cc1 (stereo not given)	> 100 µM (inactive)

====

- System: HCT-116
- run.description: NCI tumour cell line growth inhibition, 48 h
Activity calls are given as the source filed them. Rule as the data show it: active = GI50 up to about 1.1 µM and inactive = higher.
quantity.name: GI50

>>> df
                                   molecule         result_value
0          CN(N)/N=N/c1[nH]cnc1[N+](=O)[O-]   34.8 µM (inactive)
1  O=C1Nc2ccccc2/C1=N/N1C(=O)/C(=C/c2ccccc2S)N=C1c1ccccc1   99.8 µM (inactive)
2  COc1cc(Cc2nccc3cc(OC)c(OC)cc23)c(/N=N/N(C)C)cc1OC   5.08 µM (inactive)
3  Cc1cc2c(c(/C=N/c3ccc([N+](=O)[O-])cc3)c1)OC1(C=C2)Oc2ccccc2C(=O)N1C (stereo not given)   14.6 µM (inactive)
4  CCCCN(CCCC)CC(O)c1cc(-c2ccc(Cl)c(Cl)c2)nc2c(Cl)cc(Cl)cc12 (stereo not given)  > 100 µM (inactive)
